Data origin, for the record: ChEMBL document CHEMBL5137096

Give measured CC100 for each item. Keep answers brief.
- Tested on: BHK-21
- Protocol Description: Cytotoxicity against golden hamster BHK-21 cells measured after 6 days by MTT assay
- Assay type: toxicity, cell-based, Mesocricetus auratus
- Condition Info: bhk-21, 144 h, time 6 day
Note: unit µg/mL is implicit; provide only the numeric part.

### Prompt Item CC(C)c1cc2c(cc1O)[C@@]1(C)CCC[C@](C)(CO)[C@@H]1CC2 with BHK-21 - CC100?
### Response 12.5

### Prompt // lookup CC100 | system=BHK-21 | key= COC(=O)[C@]1(C)CCC[C@]2(C)c3ccc(C(C)C)cc3CC[C@@H]12
### Response 50

### Prompt Can you look up CC100 on BHK-21 for COC(=O)[C@]1(C)CCC[C@]2(C)c3cc(OC(C)=O)c(C(C)C)cc3CC[C@@H]12 ?
### Response 50

### Prompt Value wanted: CC100 (BHK-21) of entry COC(=O)[C@]1(C)CCC[C@]2(C)c3cc(O)c(C(C)C)cc3C(=O)C[C@@H]12
### Response 25
